B1: ZER1 (parent)
chain: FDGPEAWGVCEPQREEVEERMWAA

# Variants of: B1
# TEST METHOD NOTES: protein stability index of a GFP-peptide fusion (GPS, HEK-293T) (PSI 1-6); higher = more stable;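 further: lentivirally expressed fusions sorted by FACS into six bins by GFP to DsRed ratio, PSI derived from sequencing read proportions per bin multiplied by bin number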
# EXPERIMENTAL PARAMETERS: c terminus: a fixed tail appended
Please note: fulfilled applies when protein stability index is 2 or greater, and not fulfilled applies otherwise.

MUTATION ID | ASSIGNED CATEGORY
E19D | fulfilled

Ask: Does the variant "V9S" have recorded protein stability index that is 2 or more?
Result: fulfilled

Ask: Does the variant "E19I" have recorded protein stability index that is 2 or more?
Result: fulfilled

Ask: Does the variant "P12Y" have recorded protein stability index that is 2 or more?
Result: fulfilled

Ask: Does the variant "F1A" have recorded protein stability index that is 2 or more?
Result: fulfilled

Ask: Does the variant "G3H" have recorded protein stability index that is 2 or more?
Result: not fulfilled

Ask: Does the variant "A6V" have recorded protein stability index that is 2 or more?
Result: fulfilled
